Test system: EGFP
COND: GFP(%): median green fluorescence of transfected vs untransfected cells in same well, without ligand, HEK293T tTA-d2EGFP
# if value of Basal expression levels (%) reaches 20%, tag condition met; if it stays below, tag condition not met

These solved cases illustrate the format of a correct answer.
{"SUBSTANCE": "S23: EGFP shRNA switch, smaller theophylline aptamer; Table I (pCS1061) (CTCGAGATACCAGCCGAAAGGCCCTTGGCAGCTCGAGCTGATCCTGCTAGA)", "ASSIGNED_LABEL": "condition not met"}
{"SUBSTANCE": "S15: EGFP shRNA switch, smaller theophylline aptamer; Table I (pC5909) (CTCGATACCAGCCGAAAGGCCCTTGGCAGCGGGCTGACCCTGCTAGA)", "ASSIGNED_LABEL": "condition not met"}
{"SUBSTANCE": "S12: EGFP shRNA switch with theophylline aptamer variant (shorter aptamer stem); Table I (pCS635) (CTCGAGATACCACCGAAAGGCCTTGGCAGCTCGGGCTGACCCTGACTAGA)", "ASSIGNED_LABEL": "condition not met"}
{"SUBSTANCE": "S21: EGFP shRNA switch, smaller theophylline aptamer; Table I (pCS1003) (CTCGAGATACCAGCCGAAAGGCCCTTGGCAGCTCGGGCTGACCCTGGCTAGA)", "ASSIGNED_LABEL": "condition not met"}

Decide: Basal expression levels (%) of S13: optimized EGFP shRNA switch, smaller theophylline aptamer; Table I (pCS911) (CTCGAGATACCAGCCGAAAGGCCCTTGGCAGCTCGGGCTGACCCTGCTAGA) >= 20%?
condition not met

Can you handle S14: EGFP shRNA switch, smaller theophylline aptamer; Table I (pCS908) (CTCGATACCAGCCGAAAGGCCCTTGGCAGCGAGCTGACCCTGCTAGA) next?
condition not met

Can you handle S25: EGFP shRNA switch, smaller theophylline aptamer; Table I (pCS1063) (CTCGAGATACCAGCCGAAAGGCCCTTGGCAGCTCGGGCTGATCCTGACTAGA) next?
condition not met

Can you handle S10: EGFP shRNA switch, larger theophylline aptamer, combined switching strand changes from S4; Table I (pCS808) (CTCGATACCAGCATCGACTCTTCGATGCCCTTGGCAGCGAGCTGACCCTGACTAGA) next?
condition met

Can you handle S22: EGFP shRNA switch, smaller theophylline aptamer; Table I (pCS1004) (CTCGATACCAGCCGAAAGGCCCTTGGCAGCGAGCTGACCCTGAACTAGA) next?
condition met

###

Known η (dynamic range) of a selection of substances
Test system: EGFP
COND: ratio of GFP(%) at high (3 mM) and low (1 μM) theophylline concentrations
Format: numeric value only, no unit, no commentary.

Known results for substances:
{"SUBSTANCE": "S14: EGFP shRNA switch, smaller theophylline aptamer; Table I (pCS908) (CTCGATACCAGCCGAAAGGCCCTTGGCAGCGAGCTGACCCTGCTAGA)", "η (dynamic range)": 2.86}
{"SUBSTANCE": "S19: EGFP shRNA switch, smaller theophylline aptamer; Table I (pCS1001) (CTCGAGATACCAGCCGAAAGGCCCTTGGCAGCTCGGGCTGACCCTGAACTAGA)", "η (dynamic range)": 2.38}
{"SUBSTANCE": "S21: EGFP shRNA switch, smaller theophylline aptamer; Table I (pCS1003) (CTCGAGATACCAGCCGAAAGGCCCTTGGCAGCTCGGGCTGACCCTGGCTAGA)", "η (dynamic range)": 2.52}
{"SUBSTANCE": "S10: EGFP shRNA switch, larger theophylline aptamer, combined switching strand changes from S4; Table I (pCS808) (CTCGATACCAGCATCGACTCTTCGATGCCCTTGGCAGCGAGCTGACCCTGACTAGA)", "η (dynamic range)": 3.60}
{"SUBSTANCE": "S15: EGFP shRNA switch, smaller theophylline aptamer; Table I (pC5909) (CTCGATACCAGCCGAAAGGCCCTTGGCAGCGGGCTGACCCTGCTAGA)", "η (dynamic range)": 2.56}
{"SUBSTANCE": "S24: EGFP shRNA switch, smaller theophylline aptamer; Table I (PCS1062) (CTCGAGATACCAGCCGAAAGGCCCTTGGCAGCTCGGGCTGATCCTGCTAGA)", "η (dynamic range)": 3.00}
{"SUBSTANCE": "S16: EGFP shRNA switch, smaller theophylline aptamer; Table I (pCS910) (CTCGATACCAGCCGAAAGGCCCTTGGCAGCGAGCTGACCCTGACTAGA)", "η (dynamic range)": 3.85}
{"SUBSTANCE": "S25: EGFP shRNA switch, smaller theophylline aptamer; Table I (pCS1063) (CTCGAGATACCAGCCGAAAGGCCCTTGGCAGCTCGGGCTGATCCTGACTAGA)", "η (dynamic range)": 2.63}

Any idea what η (dynamic range) was measured for S13: optimized EGFP shRNA switch, smaller theophylline aptamer; Table I (pCS911) (CTCGAGATACCAGCCGAAAGGCCCTTGGCAGCTCGGGCTGACCCTGCTAGA) ?
5.61

Can you handle S18: EGFP shRNA switch, smaller theophylline aptamer; Table I (pCS942) (CTCGAGATACCAGCCGAAAGGCCCTTGGCAGCTCGAGCTGACCCTACTAGA) next?
3.89

Data credit: patent US8367815B2
